# system: insect ecdysteroid receptor (EcR) (Spodoptera frugiperda, UniProt Q8MWR2)
# Construct: To an Sf-9 cell suspension (400 μL; (2.0–3.0) × 10^6 cells/mL) in a disposable culture tube; endogenous in cells; host or cells: Sf-9 cells
# Sequence (Q8MWR2 1-403): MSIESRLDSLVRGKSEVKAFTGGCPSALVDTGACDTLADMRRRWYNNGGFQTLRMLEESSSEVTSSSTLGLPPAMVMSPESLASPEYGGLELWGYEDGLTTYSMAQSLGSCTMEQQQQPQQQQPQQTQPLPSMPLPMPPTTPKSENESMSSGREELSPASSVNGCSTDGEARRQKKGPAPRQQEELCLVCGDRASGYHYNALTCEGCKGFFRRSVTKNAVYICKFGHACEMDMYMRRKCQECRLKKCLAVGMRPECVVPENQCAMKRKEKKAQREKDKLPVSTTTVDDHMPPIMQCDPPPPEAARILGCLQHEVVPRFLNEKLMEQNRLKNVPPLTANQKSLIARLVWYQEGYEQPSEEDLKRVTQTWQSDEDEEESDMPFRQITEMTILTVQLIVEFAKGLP
# assay.comment: EcR binding assay ([3H]PonA displacement in Sf-9 cells)
# measurement.parameters: pIC50 (M), ecdysteroid receptor binding affinity, inhibition of [3H]PonA binding, Sf-9 cell suspension, 25 °C, 30 min; probit analysis
outcome.measure: IC50

Some compounds with known IC50 results, for comparison:
{"compound": "CC(C)(O)CC[C@@H](O)[C@](C)(O)[C@H]1CC[C@@H]2C3=CC(=O)[C@@H]4C[C@@H](O)[C@@H](O)C[C@]4(C)[C@H]3CC[C@@]21C [Compound 10, 14β-14-Deoxy-20-hydroxyecdysone]", "outcome.measure": "IC50", "value.measured": "> 2.51e-05 M"}
{"compound": "CC(C)(O)CC[C@@H](O)[C@](C)(O)[C@H]1CC=C2C3=C(CC[C@@]21C)[C@@]1(C)C[C@H](O)[C@H](O)CC1=C(O)C3=O [Compound 11, calonysterone]", "outcome.measure": "IC50", "value.measured": "> 2.51e-05 M"}

Readout IC50 for CCC1(CC)O[C@H]2C[C@@]3(C)[C@@H](C[C@H]2O1)C(=O)C=C1[C@@H]3CC[C@]2(C)[C@@H]([C@@](C)(O)[C@H](O)CCC(C)(C)O)CC[C@@]12O [Compound 19] , test system insect ecdysteroid receptor (EcR) (Spodoptera frugiperda, UniProt Q8MWR2), was 3.02e-06 M

Given the compound CC(C)(O)CC[C@@H](O)[C@](C)(O)[C@H]1CC[C@@]2(O)C3=CC(=O)[C@H]4C[C@@H](O)C[C@@H](O)[C@]4(C)[C@H]3CC[C@]12C [Compound 15, 5α-2-deoxyintegristerone A] and test system insect ecdysteroid receptor (EcR) (Spodoptera frugiperda, UniProt Q8MWR2), the measured IC50 is > 2.51e-05 M

The compound CC(C)(O)CC[C@@H](O)[C@](C)(O)[C@H]1CC[C@@H]2C3=C(CC[C@@]21C)[C@@]1(C)C[C@H](O)[C@H](O)CC1=C(O)C3=O [Compound 4, 14β-14,15-Dihydrocalonysterone] , tested on insect ecdysteroid receptor (EcR) (Spodoptera frugiperda, UniProt Q8MWR2), showed IC50 of ~2.51e-05 M

Considering CC(C)(O)CC[C@@H](O)[C@](C)(O)[C@H]1CC[C@@]2(O)C3=CC(=O)[C@@H]4C[C@@H](O)[C@@H](O)C[C@]4(C)[C@@]3(O)CC[C@]12C [Compound 20, 9α,20-dihydroxyecdysone] , its IC50 with insect ecdysteroid receptor (EcR) (Spodoptera frugiperda, UniProt Q8MWR2) was recorded as > 2.51e-05 M

Let me check: CC(C)(O)CC[C@@H](O)[C@](C)(O)[C@H]1CC[C@@]2(O)C3=CC(=O)[C@H]4C[C@@H](O)[C@@H](O)C[C@]4(C)[C@@]3(O)CC[C@]12C [Compound 21, 5α-9α,20-dihydroxyecdysone] , system insect ecdysteroid receptor (EcR) (Spodoptera frugiperda, UniProt Q8MWR2), measured IC50 is > 2.51e-05 M

Result for CC(C)(O)CC[C@@H](O)[C@](C)(O)[C@H]1CC[C@H]2C3=CC(=O)[C@@H]4C[C@@H](O)[C@@H](O)C[C@]4(C)[C@H]3CC[C@]12C [Compound 8, 14-Deoxy-20-hydroxyecdysone] , tested on insect ecdysteroid receptor (EcR) (Spodoptera frugiperda, UniProt Q8MWR2), IC50: 6.92e-08 M

The compound CC(C)(O)CC[C@@H](O)[C@](C)(O)[C@H]1CC[C@H]2C3=CC(=O)[C@@H]4C[C@@H](O)[C@@H](O)C[C@]4(C)C3=CC[C@]12C [Compound 7, 14-Deoxy-25-hydroxydacryhainansterone] , when measured on insect ecdysteroid receptor (EcR) (Spodoptera frugiperda, UniProt Q8MWR2), yielded IC50 of 4.79e-07 M
